- PROTOCOL_DETAILS: IP pharmacokinetics in C57BL/6 mice (plasma and brain)
- Assay type: in vivo, mouse
- SETUP_CONDITIONS: male, C57BL/6, mouse, brain/plasma, ip, 20 mg/kg, IP 20 mg/kg; read-out: Blood Brain Penetration Ratio: AUC brain/AUC plasma
QUANTITY_MEASURED: Kp

[in] What does the record list as Kp for Cc1ccc(Cn2c(=N)n(CC(O)c3ccc(Cl)c(Cl)c3)c3ccccc32)cc1 (stereo not shown) [Compound 130699] ?
[out] 0.9

###

- PROTOCOL_DETAILS: IV pharmacokinetics in C57BL/6 mice (plasma and brain)
- Assay type: in vivo, mouse
- SETUP_CONDITIONS: male, C57BL/6, mouse; IV 10 mg/kg, plasma; read-out: Terminal half life
QUANTITY_MEASURED: half-life
Please report the result as a number followed by the unit.

[in] What does the record list as half-life for Cc1ccc(Cn2c(=N)n(CC(O)c3ccc(Cl)c(Cl)c3)c3ccccc32)cc1 (stereo not shown) [Compound 130699] ?
[out] 1.52 h

###

- PROTOCOL_DETAILS: IV pharmacokinetics in C57BL/6 mice (plasma and brain)
- Assay type: in vivo, mouse
- SETUP_CONDITIONS: male, C57BL/6, mouse, brain; 10 mg/kg iv, 24 hours; read-out: brain levels persisting at 24 hours post-injection
QUANTITY_MEASURED: concentration at 24 h
Please report the result as a number followed by the unit.

[in] What does the record list as concentration at 24 h for Cc1ccc(Cn2c(=N)n(CC(O)c3ccc(Cl)c(Cl)c3)c3ccccc32)cc1 (stereo not shown) [Compound 130699] ?
[out] 5 ng/g

###

- PROTOCOL_DETAILS: IP pharmacokinetics in C57BL/6 mice (plasma and brain)
- Format: in vivo, mouse
- SETUP_CONDITIONS: male, C57BL/6, mouse; IP 20 mg/kg, brain; read-out: Terminal half life
QUANTITY_MEASURED: half-life (h)
Just the number please, in h, no unit attached.

[in] What does the record list as half-life for Cc1ccc(Cn2c(=N)n(CC(O)c3ccc(Cl)c(Cl)c3)c3ccccc32)cc1 (stereo not shown) ?
[out] 3.39

###

- PROTOCOL_DETAILS: IV pharmacokinetics in C57BL/6 mice (plasma and brain)
- Assay type: in vivo, mouse
- SETUP_CONDITIONS: male, C57BL/6, mouse; IV 10 mg/kg, plasma
QUANTITY_MEASURED: Cmax (ng/mL)
Just the number please, in ng/mL, no unit attached.

[in] What does the record list as Cmax for Cc1ccc(Cn2c(=N)n(CC(O)c3ccc(Cl)c(Cl)c3)c3ccccc32)cc1 (stereo not shown) ?
[out] 512

###

- PROTOCOL_DETAILS: IV pharmacokinetics in C57BL/6 mice (plasma and brain)
- Type: in vivo, mouse
- SETUP_CONDITIONS: male, C57BL/6, mouse, brain/plasma, iv, 10 mg/kg, IV 10 mg/kg; read-out: Blood Brain Penetration Ratio: Cmax brain/Cmax plasma
QUANTITY_MEASURED: Kp

[in] What does the record list as Kp for Cc1ccc(Cn2c(=N)n(CC(O)c3ccc(Cl)c(Cl)c3)c3ccccc32)cc1 (stereo not shown) ?
[out] 4.8

###

- PROTOCOL_DETAILS: IP pharmacokinetics in C57BL/6 mice (plasma and brain)
- Format: in vivo, mouse
- SETUP_CONDITIONS: male, C57BL/6, mouse; IP 20 mg/kg, brain
QUANTITY_MEASURED: Cmax (ng/g)
Just the number please, in ng/g, no unit attached.

[in] What does the record list as Cmax for Cc1ccc(Cn2c(=N)n(CC(O)c3ccc(Cl)c(Cl)c3)c3ccccc32)cc1 (stereo not shown) ?
[out] 337

###

- PROTOCOL_DETAILS: Metabolism in mouse CD-1 S9 fractions (phase I, phase I+II)
- Assay type: in vitro ADME
- SETUP_CONDITIONS: CD-1, mouse, S9 fractions (hepatocyte S9), Phase I+II; read-out: half-life for in vitro combined Phase I+II metabolism in S9 fractions
QUANTITY_MEASURED: half-life at 2 μM (min)
Just the number please, in min, no unit attached.

[in] What does the record list as half-life at 2 μM for Cc1ccc(Cn2c(=N)n(CC(O)c3ccc(Cl)c(Cl)c3)c3ccccc32)cc1 (stereo not shown) ?
[out] 56

###

- PROTOCOL_DETAILS: Metabolism in mouse CD-1 S9 fractions (phase I, phase I+II)
- Format: in vitro ADME
- SETUP_CONDITIONS: CD-1, mouse, S9 fractions (hepatocyte S9), Phase I; read-out: half-life for in vitro Phase I metabolism in S9 fractions
QUANTITY_MEASURED: half-life at 2 μM (h)
Just the number please, in h, no unit attached.

[in] What does the record list as half-life at 2 μM for Cc1ccc(Cn2c(=N)n(CC(O)c3ccc(Cl)c(Cl)c3)c3ccccc32)cc1 (stereo not shown) [Compound 130699] ?
[out] 1.13

###

- PROTOCOL_DETAILS: IV pharmacokinetics in C57BL/6 mice (plasma and brain)
- Format: in vivo, mouse
- SETUP_CONDITIONS: male, C57BL/6, mouse; IV 10 mg/kg, brain
QUANTITY_MEASURED: Cmax (ng/g)
Just the number please, in ng/g, no unit attached.

[in] What does the record list as Cmax for Cc1ccc(Cn2c(=N)n(CC(O)c3ccc(Cl)c(Cl)c3)c3ccccc32)cc1 (stereo not shown) ?
[out] 2480

###

- PROTOCOL_DETAILS: IV pharmacokinetics in C57BL/6 mice (plasma and brain)
- Type: in vivo, mouse
- SETUP_CONDITIONS: male, C57BL/6, mouse; IV 10 mg/kg, brain; read-out: Terminal half life
QUANTITY_MEASURED: half-life (h)
Just the number please, in h, no unit attached.

[in] What does the record list as half-life for Cc1ccc(Cn2c(=N)n(CC(O)c3ccc(Cl)c(Cl)c3)c3ccccc32)cc1 (stereo not shown) ?
[out] 3.12

###

- PROTOCOL_DETAILS: IV pharmacokinetics in C57BL/6 mice (plasma and brain)
- Type: in vivo, mouse
- SETUP_CONDITIONS: male, C57BL/6, mouse; IV 10 mg/kg, plasma; read-out: AUC (area under the concentration-time curve) (converted)
QUANTITY_MEASURED: AUC (ng·h/mL)
Just the number please, in ng·h/mL, no unit attached.

[in] What does the record list as AUC for Cc1ccc(Cn2c(=N)n(CC(O)c3ccc(Cl)c(Cl)c3)c3ccccc32)cc1 (stereo not shown) ?
[out] 1530

###

- PROTOCOL_DETAILS: IV pharmacokinetics in C57BL/6 mice (plasma and brain)
- Format: in vivo, mouse
- SETUP_CONDITIONS: male, C57BL/6, mouse; IV 10 mg/kg, plasma; read-out: Clearance
QUANTITY_MEASURED: Clearance
Please report the result as a number followed by the unit.

[in] What does the record list as Clearance for Cc1ccc(Cn2c(=N)n(CC(O)c3ccc(Cl)c(Cl)c3)c3ccccc32)cc1 (stereo not shown) ?
[out] 2.1 mL/min

###

- PROTOCOL_DETAILS: IP pharmacokinetics in C57BL/6 mice (plasma and brain)
- Format: in vivo, mouse
- SETUP_CONDITIONS: male, C57BL/6, mouse, brain/plasma, ip, 20 mg/kg, IP 20 mg/kg; read-out: Blood Brain Penetration Ratio: Cmax brain/Cmax plasma
QUANTITY_MEASURED: Kp
API note: the answer field is a bare number with no unit suffix.

[in] What does the record list as Kp for Cc1ccc(Cn2c(=N)n(CC(O)c3ccc(Cl)c(Cl)c3)c3ccccc32)cc1 (stereo not shown) ?
[out] 0.3

Origin of values: patent US8871794B2
